target: Full-length recombinant HIV-1 integrase (Human immunodeficiency virus type 1 group M subtype B); construct: Full-length recombinant HIV-1 integrase protein was then loaded onto this oligo substrate; purchased Xpressbio Life Science Products (Express Biotech International); assay: HIV-1 IN activity inhibition assay (Xpressbio HIV-1 IN Assay kit, 3'-processing/strand transfer); assay type: biochemical; conditions: Table 2, colorimetric HRP read-out, read-out: IN inhibition IC50
measured.property: IC50

>>> meas_value("Ac-VVAKAIVAH-NH2 [Peptide 25]")
"13 µM"
>>> meas_value("Ac-VVAAEIVAH-NH2 [Peptide 24]")
"20.8 µM"
>>> meas_value("Ac-VFAKEIVAH-NH2 [Peptide 20]")
"375 µM"
>>> meas_value("Ac-VVAKEIFAH-NH2 [Peptide 21]")
"504 µM"
